Cited source for all entries: ChEMBL document CHEMBL1127441

Target: Muscarinic acetylcholine receptor
Test: Affinity for muscarinic receptor in rat brain was measured by inhibition of [3H](R)-quinuclidinyl benzilate (QNB) binding
Format: tissue-based
Please note: IC50 exactly at 30 µM is condition not met. Only values below 30 µM get condition met.

{"molecule": "CCCOC(=O)C1CN=C(N)NC1.Cl (stereo not given)", "answer label": "condition met"}
{"molecule": "COC(=O)C1CN=C(N)NC1.Cl (stereo not given)", "answer label": "condition met"}
{"molecule": "C#CCOC(=O)C1CN=C(N)NC1.Cl (stereo not given)", "answer label": "condition not met"}
{"molecule": "CCOC(=O)C1CN=C(N)NC1.Cl (stereo not given)", "answer label": "condition met"}
{"molecule": "CC(C)OC(=O)C1CN=C(N)NC1.Cl (stereo not given)", "answer label": "condition met"}
